Entry source: the supplement of paper PMC10567573

B1: TRIM39 (parent)
chain: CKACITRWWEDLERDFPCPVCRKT

Variants of: B1
Assay: protein stability index of a GFP-peptide fusion (GPS, HEK-293T) (PSI 1-6); higher = more stable;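 further: lentivirally expressed fusions sorted by FACS into six bins by GFP to DsRed ratio, PSI derived from sequencing read proportions per bin multiplied by bin number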
Conditions: c terminus: a fixed tail appended
value type: protein stability index

1. CKACITRWWEDLERKFPCPVCRKT :: 2.98
2. CKACITRWWEDYERDFPCPVCRKT :: 3.43
3. CKACIHRWWEDLERDFPCPVCRKT :: 3.28
4. CKACITRWWEDLERDFPSPVCRKT :: 1.88
5. CKACITRWWEDLERDFPCPVCTKT :: 3.72
6. CKACITRWWEDLTRDFPCPVCRKT :: 3.13
7. IKACITRWWEDLERDFPCPVCRKT :: 1.27
8. CQACITRWWEDLERDFPCPVCRKT :: 4.08
9. CKACYTRWWEDLERDFPCPVCRKT :: 4.39
10. CKACITRWWEDLERDFPCPVCRAT :: 3.9
11. CKACITQWWEDLERDFPCPVCRKT :: 3.93
12. CKACITRWWEDLERDAPCPVCRKT :: 4.32
13. CKRCITRWWEDLERDFPCPVCRKT :: 3.53
14. CKACITRWWEDLERNFPCPVCRKT :: 3.73
15. CKACITRWWEDLERDFPCIVCRKT :: 2.3
16. CKACIFRWWEDLERDFPCPVCRKT :: 2.95
17. CKACITRWWEDLLRDFPCPVCRKT :: 3.15
18. CKACITRWREDLERDFPCPVCRKT :: 4.47
19. CKACITRWWEDLERDFPGPVCRKT :: 1.77
20. CKWCITRWWEDLERDFPCPVCRKT :: 2.87
21. CKACITRWWEDLECDFPCPVCRKT :: 4.09
22. CKACITRWWEDLERDFQCPVCRKT :: 4.2
23. CKACITRWWEDLERDNPCPVCRKT :: 3.54
24. CKACITRWWEDLERDFPCPCCRKT :: 3.44
25. CKACITRWWEDDERDFPCPVCRKT :: 4.05
26. EKACITRWWEDLERDFPCPVCRKT :: 2.07
27. CKACITRWWEDLERDFPDPVCRKT :: 1.71
28. CKACITRWWEDLERDFRCPVCRKT :: 4.27
29. CKACITDWWEDLERDFPCPVCRKT :: 4
30. CKACITRWWEDLERYFPCPVCRKT :: 2.84
31. CKACITRWEEDLERDFPCPVCRKT :: 4.24
32. CKACITRWWEDLERDFPCPICRKT :: 4.22
33. CKTCITRWWEDLERDFPCPVCRKT :: 4.85
34. CKACWTRWWEDLERDFPCPVCRKT :: 3.99
35. CKACITRWWEDLEREFPCPVCRKT :: 3.54
36. CKACITRWWEDLERDLPCPVCRKT :: 2.96
37. CKACITRWWADLERDFPCPVCRKT :: 4.08
38. QKACITRWWEDLERDFPCPVCRKT :: 2.3
39. CKACITRWWEDLERDIPCPVCRKT :: 3.78
40. CKACITRWWEDLEWDFPCPVCRKT :: 3.52
41. CKACITHWWEDLERDFPCPVCRKT :: 5.06
42. CPACITRWWEDLERDFPCPVCRKT :: 4.11
43. CKACITEWWEDLERDFPCPVCRKT :: 3.73
44. CKACITRWWEDLERDFPMPVCRKT :: 1.42
45. CKACMTRWWEDLERDFPCPVCRKT :: 4.22
46. CKACITRWWEDLERDFPCPVQRKT :: 2.48
47. CNACITRWWEDLERDFPCPVCRKT :: 4.4
48. CKACITRWWEDLEVDFPCPVCRKT :: 3.76
49. CKACITRWWEDLERDFVCPVCRKT :: 4.35
50. CKACITRWWEDLERDFPCPVRRKT :: 1.94
51. CKACITRWWESLERDFPCPVCRKT :: 4.28
52. CKACITRWWEDLERDFPCPVCRHT :: 3.27
53. CKACITRWWEDLERDFPCPFCRKT :: 3.78
54. CKACITRWWEDLERDFPCPVCRKQ :: 4.21
55. CKACITRWWEDLERDFPPPVCRKT :: 2.25
56. CKACITRSWEDLERDFPCPVCRKT :: 4.92
57. WKACITRWWEDLERDFPCPVCRKT :: 2.56
58. CKACITRWWEDLERDFPCPPCRKT :: 2.36
59. CKACITRWWEDLERDFPEPVCRKT :: 1.94
60. CKACITRWWEDLEPDFPCPVCRKT :: 3.79
61. CKACITRWWEDLEGDFPCPVCRKT :: 4.59
62. CKANITRWWEDLERDFPCPVCRKT :: 2.35
63. CKALITRWWEDLERDFPCPVCRKT :: 1.63
64. CKACITRWWEDLEMDFPCPVCRKT :: 4.27
65. CKACITRWWEDLERDFPCPTCRKT :: 4.4
66. CKACITRWWEDLDRDFPCPVCRKT :: 3.7
67. CKACITRWWEDLERDFPCEVCRKT :: 3.55
68. CKACITRWWEDLERDFPCPVCRKM :: 3.76
69. CKVCITRWWEDLERDFPCPVCRKT :: 4.17
70. CKACITRWWEDLERDFSCPVCRKT :: 4.2
71. CMACITRWWEDLERDFPCPVCRKT :: 3.69
72. CKACITRWWEDLERDFPCTVCRKT :: 3.35
73. CKACITRWWEDLERDFPIPVCRKT :: 1.79
74. CKACITRWVEDLERDFPCPVCRKT :: 4.31
75. CKAVITRWWEDLERDFPCPVCRKT :: 2.19
76. CKACITRWWEVLERDFPCPVCRKT :: 3.79
77. CKACITRWWEDLERDFYCPVCRKT :: 3.9
78. CKACITRWWEDLERDFGCPVCRKT :: 3.46
79. VKACITRWWEDLERDFPCPVCRKT :: 2.27
80. CKACITRWWHDLERDFPCPVCRKT :: 3.77
81. CKACITRWWEDRERDFPCPVCRKT :: 3.86
82. CKACITRWWEDLERDPPCPVCRKT :: 3.76
83. CKACITRWWEDLERDRPCPVCRKT :: 4.2
84. CKACITRWWEDLERDFPCPVCQKT :: 3.96
85. CKACITRWWEDLERDFPCPVDRKT :: 2.57
86. CKACITRWWEDLERDFPCRVCRKT :: 2.82
87. CKACITRWWEDLGRDFPCPVCRKT :: 3.79
88. CKACITRWLEDLERDFPCPVCRKT :: 3.87
89. CKACITRWWEDLERDFPCPVCRKI :: 3.57
90. CKACITRWWEDLESDFPCPVCRKT :: 4.4
91. CKACITRWWEDLHRDFPCPVCRKT :: 3.23
